Kindly state melting point for each of the entries shown.
The reply should be a number in °C, with the unit left off.

input: So what does the record say about melting point for `CC(C)(N)c1ccc(-c2nc(Nc3ccc(F)cc3F)ncc2C#N)cc1` ?
output: 203

input: Please answer likewise for `Cc1ccc(C=C2CCN(C(=O)c3nc4ccc(O)cc4[nH]3)CC2)cc1`
output: 82

input: Please answer likewise for `O=C1OC(=O)c2cc3c(ccc4ccccc43)cc21`
output: 278

input: Please answer likewise for C=CCOC1C(NC(C)=O)C(OCc2ccccc2)OC(COCc2ccccc2)C1OCc1ccccc1 (stereo not given)
output: 138

input: Please answer likewise for CC(=O)N(C)CCCC(=O)OC1c2ccccc2C(=O)N1c1ccc2ccc(Cl)nc2n1 (stereo not given)
output: 170
